Assay: Mouse Fast PK/BBB
Format: in vivo, Male C57bl/6j mice
Details: male, C57bl/6j, plasma, oral, Dose 30 mg/kg, Time 4 hr, read-out: PLASMA Mean Conc. (ng/mL) ± Std. Dev
PROPERTY_MEASURED: concentration at 4 hr (ng/mL)
Dear colleague, please return just the value in ng/mL, with no unit written.

Use these answered entries as a reference point.
>  <COMPOUND>
COc1cc(S(=O)(=O)N2CCC(c3c4cc(C(c5ccc(Cl)cc5)c5ccc(Cl)cc5)ccc4nn3C3CC3)CC2)ccc1C(=O)O [Compound 157]

>  <UNIT_OF_MEASUREMENT>
ng/mL

>  <concentration at 4 hr>
13

$$$$
>  <COMPOUND>
O=S(=O)(c1cccc(O)c1)N1CCC(c2c3cc(C(c4ccc(Cl)cc4)c4ccc(Cl)cc4)ccc3nn2C2CC2)CC1 [Compound 151]

>  <UNIT_OF_MEASUREMENT>
ng/mL

>  <concentration at 4 hr>
884

$$$$

Now for the compound whose concentration at 4 hr we want.
Lookup: Look up concentration at 4 hr for this compound: NC(=O)c1cc(S(=O)(=O)N2CCC(c3c4cc(C(c5ccc(Cl)cc5)c5ccc(Cl)cc5)ccc4nn3C3CC3)CC2)ccc1Cl [Compound 169]
Found: 2310

---

Test: Mouse Fast PK/BBB
Format: in vivo, Male C57bl/6j mice
Conditions: male, C57bl/6j, plasma, oral, Dose 30 mg/kg, Time 1 hr, read-out: PLASMA Mean Conc. (ng/mL) ± Std. Dev
Below: a set of entries, each annotated with reported concentration at 1 hr.
Form field: result (number plus unit)

>  <SMILES_ENTRY>
NC(=O)c1cc(S(=O)(=O)N2CCC(c3c4cc(C(c5ccc(Cl)cc5)c5ccc(Cl)cc5)ccc4nn3C3CC3)CC2)ccc1Cl

>  <concentration at 1 hr>
2460 ng/mL

$$$$
>  <SMILES_ENTRY>
O=S(=O)(c1cccc(O)c1)N1CCC(c2c3cc(C(c4ccc(Cl)cc4)c4ccc(Cl)cc4)ccc3nn2C2CC2)CC1

>  <concentration at 1 hr>
2740 ng/mL

$$$$

Lookup: Look up concentration at 1 hr for this compound: "COc1cc(S(=O)(=O)N2CCC(c3c4cc(C(c5ccc(Cl)cc5)c5ccc(Cl)cc5)ccc4nn3C3CC3)CC2)ccc1C(=O)O"
Found: 241 ng/mL

---

Below: a set of entries, each annotated with reported EC50.
Molecular target: UniProtKB P21554
Sequence (P21554 whole entry): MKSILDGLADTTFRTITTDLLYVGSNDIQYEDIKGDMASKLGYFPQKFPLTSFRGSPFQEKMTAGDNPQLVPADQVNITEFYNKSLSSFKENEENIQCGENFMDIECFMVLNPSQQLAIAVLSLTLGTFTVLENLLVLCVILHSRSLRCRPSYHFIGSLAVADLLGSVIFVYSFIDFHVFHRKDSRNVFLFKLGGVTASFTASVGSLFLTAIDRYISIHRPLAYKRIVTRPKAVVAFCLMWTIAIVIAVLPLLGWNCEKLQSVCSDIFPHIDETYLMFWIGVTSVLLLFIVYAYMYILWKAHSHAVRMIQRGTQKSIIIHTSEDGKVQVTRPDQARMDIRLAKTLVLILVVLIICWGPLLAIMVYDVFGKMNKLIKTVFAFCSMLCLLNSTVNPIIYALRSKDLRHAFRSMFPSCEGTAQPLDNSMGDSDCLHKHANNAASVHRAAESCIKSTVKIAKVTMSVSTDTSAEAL
Experiment: CB-1 in vitro cAMP (HTRF) assay in HEK-293 cells
Conditions: HEK-293 cells stably transfected with human CB1R, 250 nM Forskolin, mean where tested more than once, read-out: CB-1 (HEK_cAMP) EC50
Dear colleague, please return just the value in µM, with no unit written.

>  <MOLECULE>
CNC(=O)c1ccc(S(=O)(=O)N2CCC(c3c4cc(C(c5ccc(Cl)cc5)c5ccc(Cl)cc5)ccc4nn3C3CC3)CC2)cc1F

>  <EC50, µM>
0.005

$$$$
>  <MOLECULE>
Cc1ccc(C(c2ccc(C)cc2)c2ccc3c(c2)c(C2CCN(Cc4cccc(C(=O)O)c4)CC2)nn3C2CC2)cc1

>  <EC50, µM>
0.048

$$$$
>  <MOLECULE>
O=S(=O)(C(F)F)N1CCC(c2n[nH]c3ccc(C(c4ccc(Cl)cc4)c4ccc(Cl)cc4)cc23)CC1 [Compound 81]

>  <EC50, µM>
7.32

$$$$

Lookup: Give recorded EC50 with UniProtKB P21554 for the following molecule: O=C(O)CCC(=O)N1CCC(c2c3cc(C(c4ccc(Cl)cc4)c4ccc(Cl)cc4)ccc3nn2C2CC2)CC1 [Compound 135]
Found: 0.166

Lookup: Give recorded EC50 with UniProtKB P21554 for the following molecule: "NC(=O)c1ccc(S(=O)(=O)N2CCC(c3nn(CCO)c4ccc(C(c5ccc(Cl)cc5)c5ccc(Cl)cc5)cc34)CC2)cc1"
Found: 0.026

Lookup: Give recorded EC50 with UniProtKB P21554 for the following molecule: "Cn1nc(C2CCN(S(=O)(=O)c3ccc(C(N)=O)cc3)CC2)c2cc(C(c3ccc(Cl)cc3)c3ccc(Cl)cc3)ccc21"
Found: 0.024

Lookup: Give recorded EC50 with UniProtKB P21554 for the following molecule: "CCOC(=O)Cn1nc(C2CCN(S(=O)(=O)C(F)(F)F)CC2)c2cc(C(c3ccc(Cl)cc3)c3ccc(Cl)cc3)ccc21"
Found: 3.93
